# Tested on: OVCAR-8 ovarian
# experiment description: NCI tumour cell line growth inhibition, 48 h
Assign TGI to each entry below.

Memo: COc1cc(/C=C/C(=O)OC[C@H](Br)[C@H](OC(C)=O)c2ccc3c(c2)OCO3)cc(OC)c1OC , reported TGI: > 100 µM

Memo: c1cncc(CNc2ncn[nH]2)c1 , reported TGI: > 100 µM

Memo: Cc1c(F)c(N)c2c(=O)cc(-c3ccc(NC(=O)C(N)CCCN=C(N)N)c(F)c3)oc2c1F (stereo not given) , reported TGI: > 82.8 µM

Memo: Cc1ccccc1C(C(=O)NC1CCCCC1)N(C(=O)Cn1ccnc1C)c1cccc(F)c1 (stereo not given) , reported TGI: > 100 µM

Memo: CCOC(=O)/C(=C\c1ccc(F)cc1)C(C)=O , reported TGI: 94.6 µM

Memo: Cc1ccc2nc(N/N=C/c3cccc(C)n3)cc(C)c2c1 , reported TGI: 49.5 µM

Memo: CCOC(=O)C(=O)Nc1ccc(Cl)c(C(F)(F)F)c1 , reported TGI: > 100 µM

Memo: COc1ccc2c(c1)-c1nn(CCN(C)C)c3ccc(C(=O)NCCCN(C)CCCNC(=O)c4ccc5c6c(nn5CCN(C)C)-c5cc(OC)ccc5Nc46)c(c13)N2 , reported TGI: 0.977 µM

Memo: c1ccc(Nc2nnc(-c3nsc4ccccc34)o2)cc1 , reported TGI: > 100 µM

Memo: CC1=CC2CC(C)C1(C)CCc1ccoc12 (stereo not given) , reported TGI: > 100 µM

---

Assign TGI to each entry below.
# Tested on: MDA-N
# experiment description: NCI tumour cell line growth inhibition, 48 h
The response must be a number in µM with no trailing unit.

Memo: C[C@H](CCC1=NCCN1)[C@H]1CC[C@H]2[C@@H]3CC[C@@H]4C[C@H](O)CC[C@]4(C)[C@H]3C[C@H](O)[C@]12C , reported TGI: 31

Memo: CCCCCCOc1ccc(NC2=C(Cl)C(=O)c3ncccc3C2=O)cc1 , reported TGI: 2.97

---

# System: NCI-H522 lung
# experiment description: NCI tumour cell line growth inhibition, 48 h; in the data active means GI50 below about 0.43 µM; inactive means the rest
Field 'call' accepts active, inactive

Input: # lookup: test call for COc1ccc2c(c1)[C@@]1(C)CCC3c4ccc(O)cc4CCC3C1C2 (stereo partly specified)
Output: inactive

Input: # lookup: test call for O=C1OCC2=C1C(c1cccc(C(F)(F)F)c1)c1cc3c(cc1N2CCO)CCC3 (stereo unspecified)
Output: active

Input: # lookup: test call for COc1cc2ncn(-c3cc(OCc4ccccc4S(C)(=O)=O)c(C#N)s3)c2cc1OC
Output: inactive

Input: # lookup: test call for COc1ccc2[nH]cc(-c3nc(-c4c[nH]c5ccncc45)cs3)c2c1
Output: inactive

Input: # lookup: test call for O=[N+]([O-])c1cccc(-c2cc(-c3cc(Br)ccc3O)[nH]n2)c1
Output: inactive

Input: # lookup: test call for CCCCCCCCCCCCCCCCn1cc[n+](Cc2ccccc2)c1C
Output: inactive

Input: # lookup: test call for N/C(=N\c1nc2ccccc2s1)NC(=O)Nc1cccc2ccccc12
Output: active

Input: # lookup: test call for O=C1CC/C(=C\COc2ccc3ccc(=O)oc3c2)O1
Output: inactive

Input: # lookup: test call for Cc1ccc(/C(=C/C=C(C#N)C#N)Sc2ccccn2)cc1
Output: inactive

Input: # lookup: test call for Cc1ccccc1C(C(=O)NC1CCCCC1)N(C(=O)Cn1ccnc1C)c1cccc(F)c1 (stereo unspecified)
Output: inactive

Input: # lookup: test call for Cc1ccc(Oc2nc3ccccc3cc2-c2nnc(Cn3c(COc4ccccc4)nc4ccccc43)o2)cc1
Output: inactive
